Reference source for all entries: ChEMBL document CHEMBL1152219

Assay: Inhibition of aminoglycoside N-6'-acetyltransferase Ii
pKi: −log10 of the molar value.
I would appreciate it if you labelled entries Satisfied when pKi is 7 or higher, otherwise Not satisfied.

| COMPOUND | GROUP LABEL |
| --- | --- |
| CC(C)(COP(=O)(O)OP(=O)(O)OC[C@H]1O[C@@H](n2cnc3c(N)ncnc32)[C@H](O)[C@@H]1OP(=O)(O)O)[C@@H](O)C(=O)NCCC(=O)NCC[S+]([O-])CCC(=O)NC[C@H]1O[C@H](O[C@H]2[C@H](O)[C@@H](O)[C@H](N)C[C@@H]2N)[C@H](N)[C@@H](O)[C@@H]1O (some centres not stated) | Not satisfied |
| CC(C)(COP(=O)(O)OP(=O)(O)OC[C@H]1O[C@@H](n2cnc3c(N)ncnc32)[C@H](O)[C@@H]1OP(=O)(O)O)[C@@H](O)C(=O)NCCC(=O)NCCSCCC(=O)NC[C@H]1O[C@H](O[C@H]2[C@H](O)[C@@H](O)[C@H](N)C[C@@H]2N)[C@H](N)[C@@H](O)[C@@H]1O | Satisfied |
| CC(C)(COP(=O)(O)OP(=O)(O)OC[C@H]1O[C@@H](n2cnc3c(N)ncnc32)[C@H](O)[C@@H]1OP(=O)(O)O)[C@@H](O)C(=O)NCCC(=O)NCCS(=O)(=O)CC(=O)NC[C@H]1O[C@H](O[C@H]2[C@H](O)[C@@H](O)[C@H](N)C[C@@H]2N)[C@H](N)[C@@H](O)[C@@H]1O | Not satisfied |
| CC(C)(COP(=O)(O)OP(=O)(O)OC[C@H]1O[C@@H](n2cnc3c(N)ncnc32)[C@H](O)[C@@H]1OP(=O)(O)O)[C@@H](O)C(=O)NCCC(=O)NCC[S+]([O-])CC(=O)NC[C@H]1O[C@H](O[C@H]2[C@H](O)[C@@H](O)[C@H](N)C[C@@H]2N)[C@H](N)[C@@H](O)[C@@H]1O (some centres not stated) | Satisfied |

Req: Record CC(C)(COP(=O)(O)OP(=O)(O)OC[C@H]1O[C@@H](n2cnc3c(N)ncnc32)[C@H](O)[C@@H]1OP(=O)(O)O)[C@@H](O)C(=O)NCCC(=O)NCCSCCS(=O)(=O)NC[C@H]1O[C@H](O[C@H]2[C@H](O)[C@@H](O)[C@H](N)C[C@@H]2N)[C@H](N)[C@@H](O)[C@@H]1O ; criterion: pKi no lower than 7. Met?
Resp: Not satisfied
